Provenance of the data: patent US9701662B2

Exercise: for every item that follows, state its recorded percentage damage caused to the plant, IPOHE, PRE Application.
# Test system: Ipomoea hederacea (IPOHE)
# EXPERIMENT: Pre-emergence glasshouse herbicide test
# Format: in vivo
# TEST_SETTINGS: pre-emergence (sprayed after one day cultivation), 1000 g/h, evaluated after 13 days, five point scale

Exercise: Returns the measured percentage damage caused to the plant, IPOHE, PRE Application for the input molecule. Input: Cc1ccc(-c2c(Cl)c(C(=O)Nc3nnnn3C)nn(C)c2=O)cc1
Key: 2 (2=20-39%)

Exercise: Next record, please: Cn1nnnc1NC(=O)c1nn(C)c(=O)c(-c2ccc(C(F)(F)F)cc2)c1Cl
Key: 2 (2=20-39%)

Exercise: Next record, please: CCCCNc1c(C(=O)Nc2nnnn2C)nn(C)c(=O)c1C
Key: 2 (2=20-39%)

Now let's try a different one.
Exercise: Returns the measured percentage damage caused to the plant, IPOHE, PRE Application for the input molecule. Input: Cc1ccc(C)c(-c2c(Cl)c(C(=O)Nc3nnnn3C)nn(C)c2=O)c1
Key: 5 (5=80-100%)

----------
# System: Ipomoea hederacea (IPOHE)
# EXPERIMENT: Pre-emergence glasshouse herbicide test
# Type: in vivo
# TEST_SETTINGS: pre-emergence (sprayed after one day cultivation), 1000 g/h, evaluated after 13 days, five point scale
Exercise: for every item that follows, state its recorded percentage damage caused to the plant, IPOHE, PRE Application.

Examples with their reported percentage damage caused to the plant, IPOHE, PRE Application follow.
Exercise: Returns the measured percentage damage caused to the plant, IPOHE, PRE Application for the input compound. Input: CCOc1c(C(=O)Nc2nnnn2C)nn(C)c(=O)c1C
Key: 5 (5=80-100%)

Exercise: Next record, please: COc1cccc(-c2c(Cl)c(C(=O)Nc3nnnn3C)nn(C)c2=O)c1
Key: 2 (2=20-39%)

Exercise: Next record, please: Cn1nnnc1NC(=O)c1nn(C)c(=O)c(-c2cccc(C(F)(F)F)c2)c1Cl
Key: 2 (2=20-39%)

---
Exercise: Returns the measured percentage damage caused to the plant, IPOHE, PRE Application for the input compound. Input: Cn1nnnc1NC(=O)c1nn(C)c(=O)c(-c2ccccc2C(F)(F)F)c1Cl
Key: 5 (5=80-100%)
